# Tested on: NCI-H2405
# protocol.summary: relative viability (nuclei count vs DMSO), 5 days (fraction); higher = more cells survive
# measurement.conditions: first compound 0.02 µM
Recorded relative viability for the following compounds

>  <compound>
CC(=O)O[C@@]12CO[C@@H]1C[C@H](O)[C@@]1(C)C(=O)[C@H](O)C3=C(C)[C@@H](OC(=O)[C@H](O)[C@@H](NC(=O)OC(C)(C)C)c4ccccc4)C[C@@](O)([C@@H](OC(=O)c4ccccc4)[C@H]21)C3(C)C [Docetaxel] + Cc1cc(Nc2cc(N3CCN(C)CC3)nc(Sc3ccc(NC(=O)C4CC4)cc3)n2)n[nH]1 [Tozasertib] (partner 0.1 µM)

>  <relative viability>
0.278

$$$$
>  <compound>
CC(=O)O[C@@]12CO[C@@H]1C[C@H](O)[C@@]1(C)C(=O)[C@H](O)C3=C(C)[C@@H](OC(=O)[C@H](O)[C@@H](NC(=O)OC(C)(C)C)c4ccccc4)C[C@@](O)([C@@H](OC(=O)c4ccccc4)[C@H]21)C3(C)C [Docetaxel] + CS(=O)(=O)CCNCc1ccc(-c2ccc3ncnc(Nc4ccc(OCc5cccc(F)c5)c(Cl)c4)c3c2)o1 [Lapatinib] (partner 2 µM)

>  <relative viability>
0.345

$$$$
>  <compound>
CC(=O)O[C@@]12CO[C@@H]1C[C@H](O)[C@@]1(C)C(=O)[C@H](O)C3=C(C)[C@@H](OC(=O)[C@H](O)[C@@H](NC(=O)OC(C)(C)C)c4ccccc4)C[C@@](O)([C@@H](OC(=O)c4ccccc4)[C@H]21)C3(C)C [Docetaxel] + CC(C)C[C@H](NC(=O)[C@H](Cc1ccccc1)NC(=O)c1cnccn1)B(O)O [Bortezomib] (partner 0.002 µM)

>  <relative viability>
0.308

$$$$

* * *

# System: NCI-H1651
# protocol.summary: relative viability (nuclei count vs DMSO), 5 days (fraction); higher = more cells survive
# measurement.conditions: first compound 0.05 µM

>  <molecule>
COc1cc2nccc(Oc3ccc(NC(=O)Nc4cc(C)on4)c(Cl)c3)c2cc1OC [Tivozanib] + O=C(CCCCCCC(=O)Nc1ccccc1)NO [Vorinostat] (partner 1 µM)

>  <relative viability>
0.619

$$$$
>  <molecule>
COc1cc2nccc(Oc3ccc(NC(=O)Nc4cc(C)on4)c(Cl)c3)c2cc1OC [Tivozanib] + CC1(C)CCC(c2ccc(Cl)cc2)=C(CN2CCN(c3ccc(C(=O)NS(=O)(=O)c4ccc(N[C@H](CCN5CCOCC5)CSc5ccccc5)c(S(=O)(=O)C(F)(F)F)c4)cc3)CC2)C1 [Navitoclax] (partner 0.5 µM)

>  <relative viability>
1.09

$$$$
>  <molecule>
COc1cc2nccc(Oc3ccc(NC(=O)Nc4cc(C)on4)c(Cl)c3)c2cc1OC [Tivozanib] + Nc1ncn([C@H]2C[C@H](O)[C@@H](CO)O2)c(=O)n1 [Decitabine] (partner 2 µM)

>  <relative viability>
0.675

$$$$
>  <molecule>
COc1cc2nccc(Oc3ccc(NC(=O)Nc4cc(C)on4)c(Cl)c3)c2cc1OC [Tivozanib] + Cc1cc(Nc2cc(N3CCN(C)CC3)nc(Sc3ccc(NC(=O)C4CC4)cc3)n2)n[nH]1 [Tozasertib] (partner 0.1 µM)

>  <relative viability>
0.758

$$$$

* * *

# System: 201T
# protocol.summary: relative viability (nuclei count vs DMSO), 5 days (fraction); higher = more cells survive
# measurement.conditions: first compound 0.005 µM
Parameter relative viability: see the listing below.

>  <compound>
COc1cc2nccc(Oc3ccc(NC(=O)Nc4cc(C)on4)c(Cl)c3)c2cc1OC [Tivozanib] + CC(=O)c1c(C)c2cnc(Nc3ccc(N4CCNCC4)cn3)nc2n(C2CCCC2)c1=O [Palbociclib] (partner 0.5 µM)

>  <assayed.system>
201T

>  <relative viability>
0.395

$$$$
>  <compound>
Nc1ccn([C@@H]2O[C@H](CO)[C@@H](O)[C@@H]2O)c(=O)n1 [Cytarabine] + COc1cccc2cc(-c3nc([C@H]4CC[C@H](C(=O)O)CC4)n4ncnc(N)c34)[nH]c12 [OSI-027] (partner 0.5 µM)

>  <assayed.system>
201T

>  <relative viability>
0.711

$$$$
>  <compound>
COc1cc2nccc(Oc3ccc(NC(=O)Nc4cc(C)on4)c(Cl)c3)c2cc1OC [Tivozanib] + Cc1cc(Nc2cc(N3CCN(C)CC3)nc(Sc3ccc(NC(=O)C4CC4)cc3)n2)n[nH]1 [Tozasertib] (partner 0.1 µM)

>  <assayed.system>
201T

>  <relative viability>
0.974

$$$$
>  <compound>
COc1cc2nccc(Oc3ccc(NC(=O)Nc4cc(C)on4)c(Cl)c3)c2cc1OC [Tivozanib] + C[C@]1(O)C[C@@H](c2nc(-c3ccc4ccc(-c5ccccc5)nc4c3)c3c(N)nccn32)C1 [Linsitinib] (partner 1 µM)

>  <assayed.system>
201T

>  <relative viability>
1.1

$$$$
